Target: UniProt O14965
Sequence (whole entry): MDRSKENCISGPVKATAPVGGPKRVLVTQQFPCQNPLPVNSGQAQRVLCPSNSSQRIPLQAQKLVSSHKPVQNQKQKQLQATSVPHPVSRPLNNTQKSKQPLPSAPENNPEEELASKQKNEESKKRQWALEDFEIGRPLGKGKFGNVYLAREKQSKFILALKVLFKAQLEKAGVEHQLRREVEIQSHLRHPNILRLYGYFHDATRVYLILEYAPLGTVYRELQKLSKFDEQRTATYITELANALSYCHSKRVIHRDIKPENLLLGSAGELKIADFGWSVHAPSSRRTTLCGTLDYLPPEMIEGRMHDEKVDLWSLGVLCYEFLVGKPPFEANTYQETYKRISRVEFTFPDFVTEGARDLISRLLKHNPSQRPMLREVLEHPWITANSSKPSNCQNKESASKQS
Experiment: Inhibition of Aurora A (unknown origin) assessed as residual enzyme activity at 10 uM using kemptide substrate
Recorded Activity values for a group of compounds are listed next.
API: value field is a number in %; no unit string.

Form field Activity, entry Cc1ccc(C(=O)C2=C(O)C(=O)N(c3nc4ccc(F)cc4s3)C2c2ccc(C(C)(C)C)cc2)o1 (stereo unspecified) : 100

Form field Activity, entry CCOc1ccc2nc(N3C(=O)C(O)=C(C(=O)c4ccccc4)C3c3ccc(Cl)cc3)sc2c1 (stereo unspecified) : 36.5

Form field Activity, entry CCCCCOc1ccc(C2C(C(=O)c3ccc4c(c3)CC(C)O4)=C(O)C(=O)N2c2nc3ccc(F)cc3s2)cc1 (stereo unspecified) : 28.4

Form field Activity, entry CCCCOc1ccc(C2C(C(=O)c3ccc4c(c3)OCCO4)=C(O)C(=O)N2c2nc3ccc(Cl)cc3s2)cc1 (stereo unspecified) : 35.2

Form field Activity, entry CC(C)(C)c1ccc(C2C(C(=O)c3ccc4c(c3)OCCO4)=C(O)C(=O)N2c2nc3ccc(Cl)cc3s2)cc1 (stereo unspecified) : 52.9

Form field Activity, entry CCOc1ccc2nc(N3C(=O)C(O)=C(C(=O)c4cccs4)C3c3ccc(C)cc3)sc2c1 (stereo unspecified) : 45.4
